Reference for the values: ChEMBL document CHEMBL3507680

Experiment: Human HepG2 cell viability assay in 384 well format
Assay type: toxicity, cell-based
Design: dose 125 nL, time 70.5 hour; concentration not given beside the values
Conditions: HepG2 cells, read-out: Inhibition
So I've got a bunch of compounds here, and I need their cytotoxicity at 70.5 h values.
All answers are understood in %, so give the number only.

Qu. Answer with the recorded cytotoxicity at 70.5 h of CN(CCc1ccccn1)C(=O)C(O)c1ccc(Br)cc1 (stereo not given) only.
Ans. -4.38

Qu. Give reported cytotoxicity at 70.5 h value for CCc1cc(CN(C)Cc2nc(-c3ccc(OC)cc3F)oc2C)on1
Ans. -5.4

Qu. // fetch cytotoxicity at 70.5 h given entry COc1ccc(CN2CCCC(n3cccn3)C2)c(Cl)c1OC (stereo not given)
Ans. -9

Qu. Please list cytotoxicity at 70.5 h recorded for the compound O=C(CCn1cccn1)N1CCN(CC(F)F)CC1
Ans. -1.77

Qu. Please supply the value of reported cytotoxicity at 70.5 h for the item Cc1cnn(CCCNC2Cc3ccccc3C2)c1
Ans. 9.93

Qu. Could you please provide reported cytotoxicity at 70.5 h for Cc1cc(C2CCCN2Cc2cc(=O)n(C)c(=O)n2C)on1 (stereo not given) ? Thanks!
Ans. -12.3

Qu. Identify measured cytotoxicity at 70.5 h associated with CCCC1CCCN(Cc2csc(-c3cnn(C)c3)n2)CC1 (stereo not given)
Ans. 14.1

Qu. For the compound O=C(O)c1nnn(-c2cc(F)cc(F)c2)c1-c1ccncc1 , report cytotoxicity at 70.5 h.
Ans. 8.43

Qu. # return recorded cytotoxicity at 70.5 h for input Cc1nc(-c2ccccc2C(=O)O)cc(C2CCN(C(C)C)C2)n1 (stereo not given)
Ans. 10.7

Qu. Let me know recorded cytotoxicity at 70.5 h for COCC(=O)NC1CC2(CCN(CC3CC3)CC2)Oc2ccccc21 (stereo not given) , thanks.
Ans. 18.1

Qu. Fill in cytotoxicity at 70.5 h for record O=C1COc2cc(C(=O)NS(=O)(=O)c3ccccc3F)ccc2N1
Ans. 21.7

Qu. Give me measured cytotoxicity at 70.5 h, please, for this compound: COCCO[C@H]1CCN(Cc2cccs2)[C@H]1Cc1cccnc1
Ans. -8.35

Qu. Tell me measured cytotoxicity at 70.5 h for Cc1ccc(-c2ncc(C(=O)N3CCN4CCCCC4C3)c(O)n2)cc1 (stereo not given) please.
Ans. -4.08

Qu. State its cytotoxicity at 70.5 h: Clc1ccccc1CN1CCc2nc(C3CCNCC3)ncc2C1
Ans. -6.61

Qu. Given CN(CCCNC(=O)c1cccc(OCC(N)=O)c1)CC(F)(F)F , respond with its cytotoxicity at 70.5 h.
Ans. 0.403

Qu. Answer with reported cytotoxicity at 70.5 h of CC(C)(C)n1nnnc1CN(Cc1ccccc1)Cc1ccc(Cl)cc1
Ans. 8.17

Qu. Hello, please tell me recorded cytotoxicity at 70.5 h for this one: CCNC(=O)N(C)C(c1cccc(F)c1)c1ccccn1 (stereo not given)
Ans. -14

Qu. Read the entry O=C(COc1ccccc1)NCC1CC1 and write its reported cytotoxicity at 70.5 h.
Ans. 9.36

Qu. State, in one line, measured cytotoxicity at 70.5 h of CCn1nc(Br)nc1Sc1ccccc1NC(C)=O
Ans. -0.88

Qu. Query cytotoxicity at 70.5 h for CC(NC(=O)NCc1ccccn1)c1ccc2c(c1)CCC(=O)N2 (stereo not given)
Ans. -6.54

Qu. State, in one line, measured cytotoxicity at 70.5 h of Cn1cc(CN2CCC[C@]3(C[C@H](Oc4ncccc4F)CO3)C2)cn1
Ans. -5.41

Qu. Supply cytotoxicity at 70.5 h value. Item: Cc1c[nH]c(CN2CCCCC2CCn2ccnc2C)c(C)c1=O (stereo not given)
Ans. -8.38

Qu. State, in one line, measured cytotoxicity at 70.5 h of OCC1CCCN1c1cc(NCCc2nccs2)ncn1 (stereo not given)
Ans. 0.047

Qu. Give the reported value of cytotoxicity at 70.5 h for this record: Cc1noc(C)c1C(=O)N1CCC2(CC(N(C)c3ccncn3)C2)C1 (stereo not given)
Ans. -6.65

Qu. Please supply the value of reported cytotoxicity at 70.5 h for the item Cc1noc(CCNC(=O)NCC(=O)NCc2ccccc2)n1
Ans. -4.83
